molecular target: EGFR L858R (Homo sapiens, UniProt P00533, L858R); construct: purchased SignalChem E10-122BG; assay: Biochemical EGFR inhibition assay (Caliper mobility shift), EGFR L858R; settings: read-out: Enz EGFR_L858R IC50
Sequence (P00533 25-1210 L858R): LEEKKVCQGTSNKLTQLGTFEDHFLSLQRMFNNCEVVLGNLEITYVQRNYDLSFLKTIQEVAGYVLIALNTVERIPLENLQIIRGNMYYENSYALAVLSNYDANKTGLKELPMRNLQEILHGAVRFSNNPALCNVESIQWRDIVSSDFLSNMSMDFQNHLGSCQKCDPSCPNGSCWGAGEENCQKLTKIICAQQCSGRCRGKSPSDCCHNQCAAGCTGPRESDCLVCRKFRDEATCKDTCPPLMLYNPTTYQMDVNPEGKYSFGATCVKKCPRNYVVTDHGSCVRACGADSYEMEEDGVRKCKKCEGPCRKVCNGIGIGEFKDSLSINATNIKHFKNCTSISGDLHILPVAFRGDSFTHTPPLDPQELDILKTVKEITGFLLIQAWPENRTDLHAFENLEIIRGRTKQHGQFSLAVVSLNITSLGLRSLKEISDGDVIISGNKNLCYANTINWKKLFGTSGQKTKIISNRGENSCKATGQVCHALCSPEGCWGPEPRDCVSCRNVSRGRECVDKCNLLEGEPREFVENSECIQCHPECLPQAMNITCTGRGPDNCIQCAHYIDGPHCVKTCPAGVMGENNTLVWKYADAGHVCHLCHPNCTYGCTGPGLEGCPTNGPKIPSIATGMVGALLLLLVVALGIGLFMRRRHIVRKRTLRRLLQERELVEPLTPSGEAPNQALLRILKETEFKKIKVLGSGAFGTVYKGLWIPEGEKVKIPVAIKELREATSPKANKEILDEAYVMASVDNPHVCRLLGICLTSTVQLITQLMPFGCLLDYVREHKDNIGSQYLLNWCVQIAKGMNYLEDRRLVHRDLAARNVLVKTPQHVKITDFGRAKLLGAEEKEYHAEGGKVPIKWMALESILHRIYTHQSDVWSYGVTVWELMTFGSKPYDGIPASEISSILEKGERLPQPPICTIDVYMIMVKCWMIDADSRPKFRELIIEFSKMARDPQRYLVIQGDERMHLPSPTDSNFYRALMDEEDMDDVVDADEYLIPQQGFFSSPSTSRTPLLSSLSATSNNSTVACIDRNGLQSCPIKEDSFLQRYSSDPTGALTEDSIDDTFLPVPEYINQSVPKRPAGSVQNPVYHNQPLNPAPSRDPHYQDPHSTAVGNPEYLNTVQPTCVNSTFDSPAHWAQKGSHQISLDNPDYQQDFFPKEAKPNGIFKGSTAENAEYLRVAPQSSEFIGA
pIC50: −log10 of the molar value.
recorded_endpoint: pIC50

Below, each entry is followed by its recorded pIC50 result.
Query :: Recall the recorded pIC50 for "C[C@H](CN(C)C)Oc1cc(-c2cnn(C)c2)cc2ncnc(Nc3cnc4ccccc4c3)c12" with EGFR L858R (Homo sapiens, UniProt P00533, L858R) and state it.
Result :: > 8.00

Query :: What pIC50 appears in the records for this compound with EGFR L858R (Homo sapiens, UniProt P00533, L858R)? "CN(C)CC1(COc2cc(-c3cnn(C)c3)cc3ncnc(Nc4ccc5ncccc5c4F)c23)COC1"
Result :: 7.30 to 8.00

Query :: Any idea what pIC50 came out for "C[C@H](Oc1cc(-c2cnn(C)c2)cc2ncnc(Nc3ccc4ncccc4c3F)c12)[C@@H]1COCCN1" on EGFR L858R (Homo sapiens, UniProt P00533, L858R)?
Result :: < 7.30

Query :: Query pIC50 on EGFR L858R (Homo sapiens, UniProt P00533, L858R) for "C[C@H](CN(C)C)Oc1cc(N2CC3(CNC3)C2)cc2ncnc(Nc3ccc4ncccc4c3F)c12"
Result :: > 8.00

Query :: Request - read-out pIC50 | tested on EGFR L858R (Homo sapiens, UniProt P00533, L858R) | compound "C[C@H](CN(C)C)Oc1cc(N2CC3CCC(C2)O3)cc2ncnc(Nc3ccc4ncccc4c3F)c12"
Result :: < 7.30

Query :: Return pIC50 measured with EGFR L858R (Homo sapiens, UniProt P00533, L858R) given this compound: COC1CCN(c2cc(O[C@H](C)CN(C)C)c3c(Nc4ccc5ncccc5c4F)ncnc3c2)C1 (mixture of isomers)
Result :: > 8.00

Further cases:
Query :: What measured pIC50 is associated with "C[C@H](CN1CCC1)Oc1cc(-c2cnn(C)c2)cc2ncnc(Nc3ccc4ncccc4c3F)c12" on EGFR L858R (Homo sapiens, UniProt P00533, L858R)?
Result :: 7.30 to 8.00

Query :: Value wanted: pIC50 (EGFR L858R (Homo sapiens, UniProt P00533, L858R)) of entry "C[C@H](CN(C)C)Oc1cc(N2CCC3(COC3)C2)cc2ncnc(Nc3ccc4ncccc4c3F)c12"
Result :: 7.30 to 8.00

Query :: Requested read-out pIC50, target or system EGFR L858R (Homo sapiens, UniProt P00533, L858R), entry "C[C@@H](Oc1cc(N2CC3CC(C2)O3)cc2ncnc(Nc3ccc4ncccc4c3F)c12)C1COC1"
Result :: > 8.00

Query :: Notebook entry, EGFR L858R (Homo sapiens, UniProt P00533, L858R) assay: pIC50 of "C[C@@H](Oc1cc(-c2cnn(C(C)(C)CO)c2)cc2ncnc(Nc3ccc4ncccc4c3F)c12)C1COC1" = ?
Result :: > 8.00

Query :: For EGFR L858R (Homo sapiens, UniProt P00533, L858R), provide pIC50 of "C[C@H](CN(C)C)Oc1cc(N2CCn3cncc3C2)cc2ncnc(Nc3ccc4ncccc4c3F)c12" please.
Result :: 7.30 to 8.00

Where do these numbers come from? They come from patent US12662465B2.
